Reported IC50 against human PDE10A2 (Homo sapiens (Human)), gathered from multiple publications, appears below.
Numbers only, in nM.

Below are some molecules; for each one, tell me its IC50.
1. Cn1cc(-c2ccncc2)c(-c2ccc(OCc3nc4ccccc4n3CF)cc2)n1
2. Cc1nc2ccc(C3CC3)nc2n2c(-c3cc(C4(O)CCOC4)ccc3Cl)nnc12 (racemic)
3. O=C(Nc1cnccc1C(=O)N1CCC(F)(F)C1)c1nc(C2CC2)ccc1Nc1cncnc1
4. Cn1ncc(NC(=O)c2nc(C3CC3)cnc2Nc2cncnc2)c1C(=O)NCCC(C)(C)O

Solution:
1: 0.98; 2: 2140; 3: 65.7; 4: 3

* * *

# literature pull: human PDE10A2 (Homo sapiens (Human)) log10 of IC50
Recall that a logarithmic scale is used here: each number is log10 of IC50 in nM.

> print(dat)
                                   molecule  reported
1  CNC(=O)c1c(Cl)cccc1NC(=O)c1nc(C2CC2)cnc1Nc1cncnc1      1.34
2  Cc1nc2cccnc2n2c(-c3cc(OC4CCOCC4)ccc3Cl)nnc12      3.44
3  CC1(C)C(=O)N([C@H]2C[C@H](Nc3nc4ccc(F)cc4s3)C2)c2ncccc21     -1.40

Lab note: each molecule below needs its log10 of IC50 filled in.
1. CC1(C)C(=O)N([C@H]2C[C@H](Nc3ccc(Cl)cn3)C2)c2ncccc21
2. CCN(CC)C(=O)c1cnn(C)c1C(=O)Nc1ccc2nc(N3CCCC3)nn2c1
3. Cc1ccc2nc(C)c3nnc(-c4cc(OCCCO)ccc4Cl)n3c2n1

Solution:
1. -0.07
2. 0.54
3. 2.99

* * *

Endpoint summary: IC50, system: human PDE10A2 (Homo sapiens (Human)), multiple sources combined.
Give bare numbers, in nM.

> print(dat)
                                   molecule  reported
1  O=c1[nH]c2cccnc2n1[C@H]1C[C@H](Nc2ncc3ccc(F)cc3n2)C1       339

# map each molecule to its IC50
1. Cc1cc(CCc2nc3c(C)ncc(C)n3n2)nc2ccccc12
2. Cc1nc2cccnc2n2c(-c3cc(OC4COCCC4O)ccc3Cl)nnc12 (single isomer, unassigned)
3. COc1cccc(-c2cn3ccc(NC(=O)c4c(C(=O)N(C)CCF)cnn4C)nc3n2)c1
4. CNC(=O)c1ccc(-c2nccnc2C2CN(c3ccc4ccccc4n3)C2)cc1F

Solution:
1: 18; 2: 663; 3: 364; 4: 4

# return IC50 for each item in the list
1. Cc1ncc(C)n2nc(CCc3nc(-c4ccoc4)cn3C)nc12
2. Cn1ncc(NC(=O)c2nc(C3CC3)cnc2Nc2cncnc2)c1C(=O)NC[C@H]1CCCO1
3. Cc1nn2ccc(C#Cc3nc(N4CCCC4)nn3C)nc2c1C
4. Cc1nnc2ccc(CCc3nc(N4CCCC4)nn3C)nn12
5. CN(C)C1CCN(C(=O)c2ccncc2NC(=O)c2nc(C3CC3)ccc2Nc2cncnc2)C1 (centres unmarked)
6. CC(C)(O)CNC(=O)c1nc(C2CC2)ccc1NC(=O)c1nc(C2CC2)cnc1Nc1cncnc1

Solution:
1. 2.9
2. 3.3
3. 2.6
4. 534
5. 73.7
6. 0.4

Below are some molecules; for each one, tell me its IC50.
1. CCc1cnc(C)n2nc(CCc3nc(N4CCCC4)nn3C)nc12
2. Cc1ncc(C)n2nc(CCc3ccc4c(F)c(F)cc(F)c4n3)nc12
3. CNC(=O)c1cc(CCc2nc(N3CCCC3=O)cn2C)nn2c(C)c(C(F)(F)F)nc12
4. Cc1cc(C)n2cc(CCc3nc(-c4cccs4)cn3CC(C)C)nc2n1
5. Cn1cc(-c2ccccc2)nc1C#Cc1ccc2nc(C(F)(F)F)cn2n1
6. COc1cc2ncnc(N3CCNC(c4cc(Cl)ccc4Cl)C3)c2cc1OC (centres unmarked)
7. Cn1ncc(C(=O)NCc2cc(C3CC3)[nH]n2)c1C(=O)Nc1ccn2cc(-c3ccccc3)nc2n1
8. Cc1ccc(C)n2nc(CCc3c[nH]c(-c4nccs4)n3)nc12

Solution:
3.78
360
112
12
1
170
302
1.6

Items follow; give IC50 for each.
1. CCn1ncc(NC(=O)c2nc(C3CC3)cnc2Nc2cncnc2)c1C(=O)NC
2. O=C(Nc1cc(-c2ccccc2)on1)c1nc(C2CC2)ccc1Nc1cncnc1
3. Cc1cc(Cl)c2nc(CCc3nc4c(C)ncc(C)n4n3)ccc2c1
4. Cc1ncc(C)n2nc(CC(C)c3nc(N4CCCC4)nn3C)nc12 (single isomer, unassigned; (-))

Solution:
[6.7, 1450, 290, 321]

* * *

Field IC50: reported value for human PDE10A2 (Homo sapiens (Human), UniProt Q9Y233); entries drawn from several documents.
One number for each entry, in nM.

> print(dat)
                                   molecule  reported
1  COc1cc(CCc2nc(N3CCCC3)nn2C)nn2c(C)c(C)nc12         3

Please supply IC50 for each of the following items, keeping them in order.
1. O=c1[nH]c2cccnc2n1[C@H]1CC[C@H](Nc2ccc3ccc(F)cc3n2)CC1
2. Cc1ncc(C)n2nc(/C=C/c3nc(N4CCCC4)nn3C)nc12
3. Cc1ccc(N[C@H]2C[C@@H](N3C(=O)C(C)(C)c4nccnc43)C2)nc1

Solution:
1. 1770
2. 27.7
3. 157

Okay, here is my list. What is IC50 for each of these?
1. Cc1nc2cccnc2n2c(-c3cc(OC4COCC4O)ccc3Cl)nnc12 (racemic)
2. CCNC(=O)c1c(NC(=O)c2nc(C3CC3)cnc2Nc2cncnc2)cnn1CC
3. CC(C)(O)CNC(=O)c1ncncc1NC(=O)c1nc(C2CC2)cnc1Nc1cncnc1
4. CN(Cc1ccccn1)C(=O)c1cnn(C)c1C(=O)Nc1ccn2cc(-c3ccccc3)nc2n1
5. CC(C)(O)CNC(=O)c1cnccc1NC(=O)c1nc(C2CC2)cnc1Nc1cncnc1
6. Cc1cc(C)n2nc(CCc3nc(-c4cccnc4)cn3C)nc2n1

Solution:
1. 5300
2. 11.5
3. 1.1
4. 64.1
5. 0.4
6. 44

Dear reader, for each entry below, please note its IC50.
1. CC1CCC(C)N(c2nnc3c(N)nccn23)C1 (single isomer, unassigned)
2. Cn1cc(NC(=O)c2nc(C3CC3)ccc2Nc2cncnc2)c(C(=O)N2CCCC2)n1
3. Cn1ncc(NC(=O)c2nc(C3CC3)cnc2Nc2cncnc2)c1C(N)=O
4. COc1nc2cccnc2n1C1CN(c2nc3ccccc3[nH]2)C1
5. Cn1ncc(C(=O)N2CCC2)c1C(=O)Nc1ccc2nc(-c3cccnc3)nn2c1
6. Cc1cnc2c(C(=O)NC3(c4ncc(C(F)(F)F)cc4F)CCOCC3)c(C)nn2c1
7. Cc1cc(C)n2cc(/C=C/c3nc(-c4ccsc4)cn3C)nc2n1
8. COc1ccc(C)n2nc(CCc3nc(-c4ccccc4)nn3CCC#N)nc12

Solution:
1. 350
2. 7
3. 8.5
4. 1.69
5. 43.6
6. 8630
7. 56
8. 45

For each entry beneath this line, provide reported IC50.
1. CCCn1nc(-c2ccccc2)nc1CCc1nc2c(OC)ccc(C)n2n1
2. Cc1ncc(C)n2nc(/C=C/c3nc(N4CCCCCC4)nn3C)nc12

Solution:
[37, 179]

* * *

A compilation of published IC50 results with human PDE10A2 (Homo sapiens (Human), UniProt Q9Y233).

> print(dat)
                                   molecule         reported
1  CCN(CC)C(=O)c1cnn(C)c1C(=O)Nc1ccc2nc(N(CC)CC)nn2c1        0.0191 µM
2  Cn1ncc(-c2nc(C(F)F)cs2)c1C(=O)Nc1cc2nc(-c3ccccc3)nn2cc1F       < 0.005 µM
3  CNC(=O)c1cc(OC)ccc1NC(=O)c1nc(C2CC2)cnc1Nc1cncnc1        0.0005 µM
4  Cc1nc(-c2cnn(C)c2C(=O)NC2CCn3nc(-c4ccccc4)nc3C2)c(C)s1 (stereo not drawn)  0.005 to 0.1 µM

Batch lookup, IC50 per entry.
1. Cn1ncc(-c2nc(C(F)F)cs2)c1C(=O)Nc1ccn2nc(-c3ccccc3)nc2c1
2. COc1cn(-c2ccc3c(c2F)C2(CCC2)C(=O)N3C(C)C)nc(-c2ccnn2-c2ccccc2)c1=O
3. Cc1c(-c2ccc(-c3ccccc3-c3ccccc3)cc2)nc2ccc(F)cc2c1C
4. Cc1ncc(C)n2nc(CCc3c[nH]c(-c4ccc(F)cc4)n3)nc12
5. Cc1ncc(C)n2nc(CCc3c[nH]c(-c4ccoc4)n3)nc12
6. CCCn1cc(-c2cccnc2)nc1CCc1nc2cccc(C)n2n1
7. COc1cccc(NC(=O)c2nc(C3CC3)cnc2Nc2cncnc2)c1C(=O)N(C)C

Solution:
1: < 0.005 µM; 2: ≤ 0.01 µM; 3: 0.0048 µM; 4: 0.012 µM; 5: 0.00027 µM; 6: 0.049 µM; 7: 0.0122 µM

Below is a list of molecules. For each, state its recorded IC50.
1. COCCOc1cc(Cl)c(C)n2nc(CCc3nc(N4CCCC4)nn3C)nc12
2. Cc1ncc(C)n2nc(CCc3nc(N4CCC(C(F)F)C4)nn3C)nc12 (stereo not drawn)
3. O=C1c2cccc(OCc3ccncc3)c2C(=O)N1CCc1ccc2ccccc2n1
4. O=c1[nH]c2cccnc2n1[C@H]1C[C@H](Nc2ccc3ccccc3n2)C1
5. Cc1ncc(C)n2nc(CCc3nc(N4CCCC4=O)cn3-c3ccccc3)nc12
6. Cc1ccsc1-c1cccc2c1CN(CCc1ccc3ccccc3n1)C2=O
7. CC1(C)c2cccc(-c3ccncc3)c2C(=O)N1CCc1ccc2ccccc2n1

Solution:
0.00023 µM
0.0481 µM
< 0.1 µM
0.00109 µM
0.0013 µM
0.2 to 0.5 µM
0.1 to 0.2 µM
